system: SF-268 CNS; test: NCI-60 one-dose screen, 48 h; conditions: 10 µM unless noted
About 83,000 compounds went through this panel and 20% of them were active in at least one assay; those are over-represented in the sample as a whole. Activity calls are given as the source filed them. How the source made its calls: active means growth percent below 10; inactive means the rest.
Possible outcomes: t (active), f (inactive)

[[record]]
compound = "Cc1cc(Cl)ccc1OC(C)C(=O)Nc1nnc(C2CC2)s1 (stereo unspecified)"
cat = "f"

[[record]]
compound = "CC(C)[C@H](CO)Nc1nc(Nc2ccc(C(=O)NCCNS(=O)(=O)c3cccc4c(N(C)C)cccc34)c(Cl)c2)c2ncn(C(C)C)c2n1"
cat = "t"

[[record]]
compound = "O=C(CCCn1c(=O)c2sc3ccccc3c2n2nnc(-c3ccccc3)c12)NCCc1cnc[nH]1"
cat = "t"

[[record]]
compound = "CC/C=C\\C/C=C\\C[C@H]1C/C=C2/C(=O)C=C[C@H]2C/C=C\\CCC(=O)O1"
cat = "f"

[[record]]
compound = "c1cncc(CNc2ccccc2-c2nnc(Nc3ccc4c(c3)OCCO4)o2)c1"
cat = "f"

[[record]]
compound = "COc1cc(CNC(=O)CSc2nc3ccccc3c(=O)n2Cc2cc(OC)c(OC)c(OC)c2)cc(OC)c1OC"
cat = "f"

[[record]]
compound = "CC(=O)Nc1ccc(S(=O)(=O)NC(CCC(=O)Nc2ccc(Cl)cc2)C(=O)O)cc1 (stereo unspecified)"
cat = "f"

[[record]]
compound = "CCCOC(=O)C1(O)CCCC1"
cat = "f"

[[record]]
compound = "NC(C(=O)O)C(O)c1ccc(OCc2ccccc2)c(OCc2ccccc2)c1 (stereo unspecified)"
cat = "f"

[[record]]
compound = "COc1cc(/C=C2\\CCCC3=C2NC(C)=NC3c2cc(OC)c(OC)c(OC)c2)cc(OC)c1OC (stereo unspecified)"
cat = "f"

[[record]]
compound = "CC[C@]1(O)C[C@@H]2CN(Cc3c([nH]c4ccccc34)[C@@](C(=O)OC)(c3cc4c(cc3OC)N(C)[C@H]3[C@@](O)(C(=O)OC)[C@H](OC(C)=O)[C@]5(CC)[C@@H]6C[C@@H]6CN6CC[C@]43[C@@H]65)C2)C1"
cat = "f"

[[record]]
compound = "COC(=O)[C@H]1[C@H](OC)[C@@H](OC(=O)/C=C/c2ccncc2)CC2CN3CCc4c([nH]c5cc(OC)ccc45)[C@@H]3C[C@@H]21 (stereo partly specified)"
cat = "f"

[[record]]
compound = "O=S(=O)(NCCCNc1cc(-c2cn(-c3ccccc3)nc2-c2cccc(O)c2)ccn1)c1ccc(C(F)(F)F)cc1"
cat = "f"

[[record]]
compound = "COc1ncc(-c2ccc3ncnc(Nc4cccc(Cl)c4)c3c2)cc1NS(=O)(=O)CCN1CCOCC1"
cat = "f"

[[record]]
compound = "O=C(Nc1ccc(Br)c(Cl)c1)c1cc(F)ccc1O"
cat = "f"

[[record]]
compound = "CC(Br)C(Br)c1cc2c(cc1Br)OCO2 (stereo unspecified)"
cat = "f"

[[record]]
compound = "Clc1cccc(Cl)c1Cn1c(-c2cncs2)nc2ccccc21"
cat = "f"

[[record]]
compound = "CSc1ccccc1C#C/C=C\\C#Cc1ccccc1N1CCCCC1=O"
cat = "f"

[[record]]
compound = "COc1cc(C(=O)/C=C/c2cc(C(=O)c3cc(OC)c(OC)c(OC)c3)ccc2OC)ccc1N"
cat = "t"

[[record]]
compound = "COC(=O)c1ccc2nc(-c3cc4ccccc4n3C)n(CCCCOc3cc4c(cc3OC)C(=O)N3CCC[C@H]3C=N4)c2c1"
cat = "t"

[[record]]
compound = "Cc1nn(-c2ccc(Cl)cc2)c(=O)n1CCOc1ccccc1Cl"
cat = "f"


---

test system: MALME-3M melanoma; assay: NCI-60 one-dose screen, 48 h; settings: 10 µM unless noted
The panel holds about 83,000 compounds, 20% with a hit somewhere; the sample as a whole holds those more often. Calls of active or inactive are those of the source. How the source made its calls: active means growth percent below 10; inactive means the rest.
Outcomes: active, inactive

[[record]]
compound = "CC/C=C\\C/C=C\\C[C@H](O)C/C=C1/C(=O)C=C[C@H]1C/C=C\\CCC(=O)OC"
measured_target = "MALME-3M melanoma"
cat = "inactive"

[[record]]
compound = "Cc1ccc(S(=O)(=O)OCC(=O)Nc2ccc(C(=O)O)c(O)c2)cc1"
measured_target = "MALME-3M melanoma"
cat = "inactive"

[[record]]
compound = "COc1cc(C(=O)CCCl)ccc1O"
measured_target = "MALME-3M melanoma"
cat = "inactive"

[[record]]
compound = "COC(=O)c1cc(-c2cccs2)c(C#N)c(N)c1C#N"
measured_target = "MALME-3M melanoma"
cat = "inactive"

[[record]]
compound = "Nc1c(C(=O)Nc2cccc(C(F)(F)F)c2)sc2nc3c(cc12)C(O)CCC3 (stereo not given)"
measured_target = "MALME-3M melanoma"
cat = "inactive"

[[record]]
compound = "CCc1c(C(=O)Nc2ccc3ccccc3c2)[nH]c(C)c1C(C)=O"
measured_target = "MALME-3M melanoma"
cat = "inactive"

[[record]]
compound = "CCn1cc(C2NC(=O)c3cc(F)ccc3N2)c2cccc(Cl)c21 (stereo not given)"
measured_target = "MALME-3M melanoma"
cat = "inactive"

[[record]]
compound = "COc1cc(C(=O)N2CCN(C(=O)c3ccco3)CC2)c(N)cc1OCc1ccccc1"
measured_target = "MALME-3M melanoma"
cat = "inactive"

[[record]]
compound = "O=C(CCl)NCCNc1nccc(Nc2ccc(S(=O)(=O)Nc3ccccn3)cc2)n1"
measured_target = "MALME-3M melanoma"
cat = "inactive"

[[record]]
compound = "Cc1cc2c(C(C)C)c(O)c(O)c(C=NCCCCCCC(=O)O)c2c(O)c1-c1c(C)cc2c(C(C)C)c(O)c(O)c(C=NCCCCCCC(=O)O)c2c1O"
measured_target = "MALME-3M melanoma"
cat = "inactive"

[[record]]
compound = "COc1ncc(-c2ccc3ncnc(Nc4cccc(Cl)c4)c3c2)cc1NS(=O)(=O)C1CC1"
measured_target = "MALME-3M melanoma"
cat = "inactive"

[[record]]
compound = "O=C(NCCc1c[nH]c2ccccc12)C1Cc2ccccc2CN1C(=O)c1ccco1 (stereo not given)"
measured_target = "MALME-3M melanoma"
cat = "inactive"

[[record]]
compound = "CS(=O)(=O)N(c1cc(-c2ccc3ncnc(Nc4cccc(Cl)c4)c3c2)cnc1Cl)S(C)(=O)=O"
measured_target = "MALME-3M melanoma"
cat = "active"

[[record]]
compound = "COC12CC(=O)C(C(C)=O)=C(O)C1(C)c1c(O)c(C)c(O)c(C(C)=O)c1O2 (stereo not given)"
measured_target = "MALME-3M melanoma"
cat = "inactive"

[[record]]
compound = "Cc1ccc2c(c1)C(=O)C(c1c(-c3[nH]c(=O)c4ccc(C)cc4c3O)c(O)c3ccccc3c1O)=NC2=O"
measured_target = "MALME-3M melanoma"
cat = "active"

[[record]]
compound = "C=CC(=O)N[C@H](/C=C/C(=O)OCC)Cc1ccc(-c2cc(Cl)cc(Cl)c2)cc1"
measured_target = "MALME-3M melanoma"
cat = "inactive"

[[record]]
compound = "CCCCC(N)(C(=O)O)C1CCCC1 (stereo not given)"
measured_target = "MALME-3M melanoma"
cat = "inactive"

[[record]]
compound = "Cc1ccc2c(c1)C(C)Cc1c(N(C)C)ncnc1N2C (stereo not given)"
measured_target = "MALME-3M melanoma"
cat = "inactive"

[[record]]
compound = "CN1C(=O)[C@H]2c3c1cccc3[C@@]13NC(=O)O[C@H]1[C@H](CCC3(C)C)C2(C)C"
measured_target = "MALME-3M melanoma"
cat = "inactive"

[[record]]
compound = "CCN(CC)CCC(=O)c1cccc2ccccc12"
measured_target = "MALME-3M melanoma"
cat = "inactive"


---

Test system: LOX IMVI melanoma
Test: NCI-60 one-dose screen, 48 h (100 = growth as untreated, 0 = no growth, -100 = all killed)
Settings: 10 µM unless noted
Description: Growth inhibition of the LOX IMVI human tumor cell line is measured as a screen for anti-cancer activity. Cells are grown in 96 well plates and exposed to the test compound for 48 hours. Compounds are tested at a single concentration, which is 10^-5 M for most compounds. The reported endpoint is percent growth (GI% or GIPRCNT), where numbers from 0 - 100% represent growth inhibition, and numbers from -100% - 0 represent cell death. For example, a value of 40 represents 60% growth inhibition. […]
Compounds without any hit were thinned out: in the full panel of roughly 83,000, 20% have a hit.
Note to self: use rule met only for growth readings below 30%; a reading exactly at 30% still gets rule not met.

[[record]]
compound = "O=S(=O)(NCCCNc1nccc(-c2c(-c3ccc(F)c(O)c3)nc3sccn23)n1)c1ccc(Cl)cc1"
measured_target = "LOX IMVI melanoma"
cat = "rule not met"

[[record]]
compound = "O=C(c1ccncc1)N1N=C(c2ccc(Cl)cc2)CC1c1c[nH]c2ccccc12 (stereo unspecified)"
measured_target = "LOX IMVI melanoma"
cat = "rule not met"

[[record]]
compound = "CC(=O)Nc1nc(C(=O)N2N=C(C)/C(=C/c3cccs3)C2=O)cs1"
measured_target = "LOX IMVI melanoma"
cat = "rule not met"

[[record]]
compound = "FC(F)(F)c1cccc(-n2nnc3cnc(Nc4ccc(N5CCCCC5)cc4)nc32)c1"
measured_target = "LOX IMVI melanoma"
cat = "rule not met"

[[record]]
compound = "COc1ccc(C2NC3=C(CCCC3)C(C#N)(C#N)C2(C#N)C#N)cc1 (stereo unspecified)"
measured_target = "LOX IMVI melanoma"
cat = "rule not met"

[[record]]
compound = "CCCCCCCCCN1C(=O)/C(=c2\\sc3n(c2=O)C2C(NN=3)N(CC)C(=O)N2CC)c2ccccc21 (stereo unspecified)"
measured_target = "LOX IMVI melanoma"
cat = "rule met"

[[record]]
compound = "Nc1c(C(=O)Nc2cccc(C(F)(F)F)c2)sc2nc3c(cc12)CCCCC3"
measured_target = "LOX IMVI melanoma"
cat = "rule met"

[[record]]
compound = "C#CCN1C(=O)/C(=c2\\sc3n(c2=O)NC2C(N=3)N(CC)C(=O)N2CC)c2ccccc21 (stereo unspecified)"
measured_target = "LOX IMVI melanoma"
cat = "rule not met"

[[record]]
compound = "COc1cc(Cn2c(SCC(=O)Nc3cc(OC)c(OC)c(OC)c3)nc3ccccc3c2=O)cc(OC)c1OC"
measured_target = "LOX IMVI melanoma"
cat = "rule not met"

[[record]]
compound = "CC(C)C[C@H](NC(=O)[C@@H](Cc1ccccc1)n1ccc(Nc2ccccc2)cc1=O)B(O)O"
measured_target = "LOX IMVI melanoma"
cat = "rule met"

[[record]]
compound = "O=C(Nc1cccc(Cl)c1)c1cc([N+](=O)[O-])ccc1O"
measured_target = "LOX IMVI melanoma"
cat = "rule not met"


The reported measurements were obtained from PubChem BioAssay (NCI).
